All figures here come from a melting point compilation (Tetko et al.; mined from patent text by program, amines drawn as free bases though some values may be those of a salt).

Let's look at some molecules and their measured melting point.

Field: example entries. Status: answers known.
Cc1ccc(NC(=O)C(C)C)c(-c2ccnc(SC(F)(F)F)n2)c1 | 114 to 116 °C
COc1ccnc(CCc2nc3cc(-c4ccc(S(=O)(=O)N(CCO)CCO)cc4)cnc3[nH]2)c1 | 127 to 128 °C
CN(C)NC(=O)N(OCc1ccccc1)C1c2ccccc2Oc2ccccc21 | 117 °C
CC(C)Oc1ccc(N)c(C(=O)O)c1 | 120 to 122 °C
CCOC(=O)Cn1ncc(CC)c1O | 77 to 78 °C
O=c1[nH]c2cc(N3CCCC3)c(F)cc2c(=O)n1OCc1ccccc1 | > 250 °C
O=CNCCOc1cccc2c1c1ccccc1n2Cc1ccccc1 | 161 to 162 °C
O=C(O)CCCCCNC(=O)c1cc2cc3c(cc2c2cc(OCc4ccccc4)ccc12)OCO3 | 198 to 200 °C

Now look at this one.
// query Name the recorded melting point for "O=C(O)c1ccccc1Nc1ccc(-c2ccc(Cl)c(Cl)c2)cc1" .
// result > 220 °C

###

Value Kind: melting point

Please review the entries below; each comes with its answer.
CN1C(=O)Cn2cc(C(=O)NCc3ccc(F)cc3)c(=O)c3cc(CN4CCOCC4)cc1c32 | 222 to 224 °C
CCOc1ccc(-c2c(S(C)(=O)=O)ccc(C(=O)c3cnn(C(C)(C)C)c3O)c2C)cc1 | 110 °C
Clc1ccc(Nc2nc(-c3nccc4ccccc34)nc3ccccc23)cc1 | 279 to 280 °C

Next:
// query Give its melting point value. Item: COC(=O)C(C)(C(=O)O)N1C(=O)CCC(N2C(=O)c3ccccc3C2=O)C1=O (centres undefined)
// result 143 to 146 °C

###

Value Kind: melting point

CCCN=CNc1cccc(O)n1 | 178 to 179 °C
O=C(CCCCOc1ccccc1)C(F)(F)F | 50 to 51 °C
Nc1cc(C(F)(F)F)cnc1N | 97 to 99 °C

// query What does the data say about its melting point? Entry: Cc1ccc(S(=O)(=O)OCC2CNC(=O)O2)cc1 (stereo not given)
// result 96 to 99 °C

###

Value Kind: melting point

Use these answered entries as a reference point.
CC(C)(C)OC(=O)NCC(O)c1cccs1 (stereo not drawn) | 101 to 102 °C
CCCC(=O)c1cnc2ccsc2c1Nc1ccccc1C(C)C | 118 to 120 °C

# next compound below
// query Name the recorded melting point for CC(C)C(NC(=O)OCCN1CCCC1)C(=O)NC(Cc1ccccc1)C(O)C(Cc1ccccc1)NC(=O)C(NC(=O)OCc1ccccc1)C(C)C (stereo not drawn) .
// result 143 to 146 °C

###

Listed next: entries and their corresponding melting point.

Consider the worked cases shown below.
CCOC(=O)c1cn(NC)c2cc3c(cc2c1=O)OCO3 | 211 to 218 °C
COc1ccc(-c2c(SCc3ccccc3)oc3cc(OCc4ccccc4)ccc3c2=O)cc1 | 131 °C
C=CCC(C#N)(C#N)Cc1ccc(C#N)cc1 | 81.9 °C
O=C1NC(=O)c2c1c(-c1ccccc1)cc1[nH]c3ccccc3c21 | 262 to 264 °C
CC(C)(C)Nc1c([N+](=O)[O-])cc([N+](=O)[O-])c2nc(C(F)F)[nH]c12 | 199 to 201 °C
COc1ccc2c(O)n[nH]c2c1OC | 175 °C
CC(C)(C)c1cc(C=Nn2ccnc2N2CCOCC2)cc(C(C)(C)C)c1O | 185 to 187 °C
CNc1c2c(nc3ccccc13)CCCC2=O | 116 to 117 °C
CNC(=C[N+](=O)[O-])NCCSCc1csc(CN2CCCCC2)c1 | 101 to 103 °C
O=c1c(Br)cc2cnc(Nc3ccccn3)nc2n1C1CCCC1 | 273 to 275 °C

// query Returns the measured melting point for the input compound. Input: "Cn1ncnc1COc1nn2c(-c3ccccc3F)nncc2c1-c1ccccn1"
// result 186 to 187 °C

// query melting point lookup needed for "O=C(Nc1ccc(CC2CCN(S(=O)(=O)N3CCCCC3)CC2)cc1)C(F)(F)F" , thanks.
// result 156 to 157 °C

// query Quick one: melting point of "NC(=O)c1ccccc1N=C(NC(=O)c1ccccc1)NC(=O)c1ccccc1" ?
// result 276 to 278 °C

// query # lookup: melting point of "CC(C)(C)c1cc2c(c(C(C)(C)C)c1)O[PH](=O)Oc1c(cc(C(C)(C)C)cc1C(C)(C)C)C2"
// result 164 °C

// query What melting point value was documented for this compound, "CCc1sc2ncccc2c1S(=O)(=O)Nc1onc(C)c1Cl" ?
// result 152 to 154 °C

// query # input compound: "CCn1c(=O)c2[nH]c(/C=C/c3ccc(C)cc3)nc2n(CC)c1=O" ; wanted: its melting point
// result > 280 °C

// query Which melting point is reported for this compound? "COc1ccc(C(=O)CBr)c2c1OCCO2"
// result 67 °C

// query Item "Cc1cccc(-c2nc3ccccn3c2-c2ccnc(-c3ccc(OC(F)(F)F)cc3)c2)n1" has what recorded melting point?
// result 120 °C

// query Returns the measured melting point for the input compound. Input: "COc1ccc(-c2c(C(=O)Cl)sc3ccccc23)cc1OC"
// result 113 °C

// query Report melting point for "N#CCOC(=O)c1cccnc1SCC#N" please.
// result 140 to 143 °C

// query Given the entry N#CC12CCCC(C1)C1CCC2C1 (stereo not given) , report its measured melting point.
// result 109 to 110 °C

// query What value of melting point has been reported for the following compound? Nc1cc(C(c2c(F)ccc(F)c2F)S(=O)(=O)CCC(F)(F)F)c(Cl)cn1 (stereo not given)
// result 155 to 159 °C

// query // lookup melting point for "Brc1ccc(Oc2ccc(-n3ccnc3)nn2)cc1"
// result 168 °C

// query For "O=C(O)COC1=C(Cc2ccc3c(Cl)cccc3c2)C(=O)CC1" , what is its reported melting point?
// result 156 to 158 °C

// query melting point for COC(=O)c1ccc(OCC2CO2)cc1O (stereo not given) ?
// result 53 to 55 °C

// query Request the reported melting point associated with "Cc1ccc(-c2cc(C(F)(F)F)n3cnc(-c4cccnc4)c3n2)cc1C(F)(F)F"
// result 236 °C

// query // returns reported melting point for input "CCOc1c(C(=O)O)oc2c3cc(OC)ccc3n(-c3ccccc3)c12"
// result 166 to 167 °C

###

Value Kind: melting point (°C)

COCc1ccc2c(c1)C=Cc1cc(C)ccc1C2c1cn(Cc2nc(C(=O)O)cs2)c(=O)[nH]c1=S (stereo not given) | 140
COc1ccc(S(=O)(=O)n2c(=O)n(-c3ccccc3)c3cc(Cl)ccc32)cc1OC | 154
Cc1cc(Cl)nnc1-c1ccccc1 | 122

(a) CCCCc1nc(Sc2ccccc2)c(CO)[nH]1
(b) FC(F)(F)c1cccc(-c2cc(C(F)(F)F)n3ncc(-c4cccnc4)c3n2)c1
// query Param metric = melting point; output whichever of a , b has the minimum value. Mark your answer with the label of the selected entry.
// result a

###

Reported melting point values for a set of compounds

A selection of reference data follows.
FC(F)c1nc2ccccc2n1-c1nc(Nc2ncccn2)nc(N2CCOCC2)n1 | 261 to 263 °C
CC(C(=O)NCC(=O)OCc1ccccc1)N1CCN(CC(=O)OC(C)(C)C)CCN(CC(=O)OC(C)(C)C)CCN(CC(=O)OC(C)(C)C)CC1 (configuration not stated) | 116 to 117 °C

// query Reported melting point for "COc1ccc2oc3cccc(NCCN4CCCC4)c3c(=O)c2c1" : what is it?
// result 92 to 93 °C

// query Give the measured melting point of "Fc1ccccc1Cn1c(-c2ccc3c(c2)OCO3)nc2ccccc21" .
// result 149 to 150 °C

// query So what's the measured melting point for this one? "NCc1nc(-c2ccc(-c3cnc4[nH]c(=O)n(CCC5CCOCC5)c4n3)cc2)n[nH]1"
// result 258 to 260 °C

// query State the recorded melting point for this entry: "CS(=O)(=O)Nc1ccc([N+](=O)[O-])cc1Br"
// result 148 to 151 °C

// query Using the record for COc1cc(C2=NC(C)(C)C(c3ccncc3)C2)cc(OC)c1OC (configuration not stated) , report its melting point.
// result 143 to 144 °C

###

Value Kind: melting point

Solved cases (5 shown):
O=c1c(-c2ccccc2)ccc2n1CCc1sccc1-2 | 187 to 189 °C
CCOC(=O)C1=C(COCC(C)(O)c2ncc[nH]2)NC(C)=C(C(=O)OC)C1c1cccc(Cl)c1Cl (configuration not stated) | 183 °C
COC(=O)c1cc(C(=O)NC(C)C(=O)OC)c2ccc(Cc3ccc(F)cc3)nc2c1O (configuration not stated) | 157 to 158 °C
C=CCc1c(O)c(Br)cc2c1[C@H](CCNC(=O)CC)CC2 | 85 to 87 °C
CCCC1=C(C(=O)OCC)C(c2cccc([N+](=O)[O-])c2)C(C(=O)OCC)=C(CCC)N1COCC | 109 to 110 °C

// query Query: melting point; subject: "CC(C)(O)Cn1c(COc2ccccc2)nc2c(N)nc3ccccc3c21"
// result 200 to 201 °C

// query What does the record list as melting point for "C=C(CC)C(=O)c1ccc(OCC(=O)NCCCCF)c(Cl)c1Cl" ?
// result 94 to 96 °C

// query Any idea what its melting point is? The compound is CC(=O)NCCNc1ccc(C2=NNC(=O)CC2C)cc1[N+](=O)[O-] (configuration not stated)
// result 222 °C

// query Would you mind telling me what melting point value was observed for CCc1cccc2[nH]c3c(c12)CC(N(C)C)CC3 (configuration not stated) ?
// result 157 to 161 °C

// query Return reported melting point; argument: CCC(O)(c1ccc(O)cc1O)c1ccccc1OC (configuration not stated)
// result 141 to 142 °C

// query Bench note: what melting point did "Nc1sc2c(c1C(=O)c1ccc(Br)s1)CCCC2" show?
// result 160 to 163 °C

// query I would be grateful if you could share the reported melting point for COc1ccc(C(=O)C(O)c2ccccc2)cc1 (configuration not stated) .
// result 99 to 101 °C
